Ref: ChEMBL document CHEMBL5214926

Recorded pIC50, one value per entry.
# Tested on: HepG2
# assay_details: Cytotoxicity against human HepG2 cells assessed as cell growth inhibition incubated for 2 days by MTT assay
# Format: functional, cell-based
# experimental_setup: HepG2, 48 h
By convention, pIC50 is the negative base-10 log of a molar concentration.

For orientation, consider the following solved cases.
CCOC(=O)c1c(NC(=O)/C=C/c2ccc(O)cc2)sc2c1CCCC2    5.08
N#Cc1c(NC(=O)/C=C/c2ccc(O)cc2)sc2c1CCCC2    5.10
COc1ccc(OC)c(/C=C/C(=O)Nc2sc3c(c2C#N)CCC3)c1    5.57

Value of pIC50 reported for the molecule COc1ccc(OC)c(/C=C/C(=O)Nc2sc3c(c2C#N)CCCC3)c1 is 5.55

Item: N#Cc1c(NC(=O)/C=C/c2ccc(O)cc2)sc2c1CCC2 | pIC50: 5.45
